# SYSTEM TESTED: PI3Kγ (Homo sapiens, UniProt P48736)
# Sequence (P48736 whole entry, species assumed): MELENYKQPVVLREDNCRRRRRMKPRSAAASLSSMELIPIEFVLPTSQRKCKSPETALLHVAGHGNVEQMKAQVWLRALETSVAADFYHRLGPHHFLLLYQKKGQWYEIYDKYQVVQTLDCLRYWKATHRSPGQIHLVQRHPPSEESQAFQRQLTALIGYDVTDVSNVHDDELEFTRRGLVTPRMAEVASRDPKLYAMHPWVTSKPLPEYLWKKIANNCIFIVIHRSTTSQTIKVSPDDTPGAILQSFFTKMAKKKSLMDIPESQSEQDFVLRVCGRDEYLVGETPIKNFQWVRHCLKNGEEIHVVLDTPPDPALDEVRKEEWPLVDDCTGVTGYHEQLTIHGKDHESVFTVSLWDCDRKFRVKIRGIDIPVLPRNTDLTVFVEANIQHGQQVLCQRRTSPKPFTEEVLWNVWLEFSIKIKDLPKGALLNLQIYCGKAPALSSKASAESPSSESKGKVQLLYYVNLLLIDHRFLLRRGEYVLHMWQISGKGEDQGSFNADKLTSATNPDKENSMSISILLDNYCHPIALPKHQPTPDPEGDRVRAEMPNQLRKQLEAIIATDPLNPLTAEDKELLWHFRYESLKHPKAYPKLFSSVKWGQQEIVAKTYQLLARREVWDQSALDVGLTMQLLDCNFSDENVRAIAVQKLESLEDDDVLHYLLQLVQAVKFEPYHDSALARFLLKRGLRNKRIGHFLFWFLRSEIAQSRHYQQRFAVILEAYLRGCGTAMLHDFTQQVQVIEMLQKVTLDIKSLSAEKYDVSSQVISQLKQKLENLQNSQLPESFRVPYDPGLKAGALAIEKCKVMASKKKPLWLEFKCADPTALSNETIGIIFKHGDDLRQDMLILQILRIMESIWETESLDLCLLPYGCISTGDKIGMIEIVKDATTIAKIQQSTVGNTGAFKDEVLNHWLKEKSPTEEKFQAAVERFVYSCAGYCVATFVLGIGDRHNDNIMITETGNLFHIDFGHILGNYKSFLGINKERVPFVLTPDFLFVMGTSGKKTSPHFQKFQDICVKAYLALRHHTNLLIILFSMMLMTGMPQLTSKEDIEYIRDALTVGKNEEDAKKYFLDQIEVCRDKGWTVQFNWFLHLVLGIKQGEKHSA
# TEST DETAILS: PI3Kγ inhibitory activity (PI3-kinase HTRF assay, inhibition ratio)
# Assay type: biochemical
# TEST CONTEXT: 0.5 h, compound at 10 μmol/L; read-out: PI3Kg Inhibition Ratio % (10 μM)
Can you tell me inhibition at 10 µM for the items I'm about to list?
Quick reminder: number only, in %, skip the unit.

response.value for `CC(C)NC(=O)c1nn(C)cc1NC(=O)Nc1nc2c(s1)CN(c1cc[nH]c(=O)c1)CC2` (field: inhibition at 10 µM) = 75

response.value for `C[C@@H](CO)NC(=O)c1ccccc1NC(=O)Nc1nc2c(s1)CN(c1cncc(C#N)c1)CC2` (field: inhibition at 10 µM) = 92

###

# SYSTEM TESTED: PI3Kγ (Homo sapiens, UniProt P48736)
# TEST DETAILS: PI3Kγ inhibitory activity (PI3-kinase HTRF assay, inhibition ratio)
# Format: biochemical
# TEST CONTEXT: 0.5 h, compound at 10 μmol/L; read-out: PI3Kg Inhibition Ratio % (10 μM)
ASSAY READOUT: inhibition at 10 µM (%)
Quick reminder: number only, in %, skip the unit.

response.value for COc1cc(N2CCc3nc(NC(=O)Nc4ccccc4C(=O)NC(C)C#N)sc3C2)nc(OC)n1 (stereo not drawn) [Compound I-159] (field: inhibition at 10 µM) = 77

response.value for COc1cc(N2CCc3nc(NC(=O)Nc4cccc5c4C(=O)N(C(C)C)C5)sc3C2)nc(OC)n1 [Compound I-201] (field: inhibition at 10 µM) = 78

response.value for COc1cc(N2CCc3nc(NC(=O)NC4CCCCC4C(=O)NC(C)C)sc3C2)nc(OC)n1 (stereo not drawn) [Compound I-31] (field: inhibition at 10 µM) = 90

response.value for Cc1cc(N2CCc3nc(NC(=O)Nc4ccccc4C(=O)NC(C)C)sc3C2)nc(Cl)n1 [Compound I-163] (field: inhibition at 10 µM) = 83

response.value for Cc1cc(N2CCc3nc(NC(=O)Nc4cn(C)nc4C(=O)NC(C)C)sc3C2)nc(C#N)n1 [Compound I-186] (field: inhibition at 10 µM) = 91

response.value for COc1ccc(-c2ccc3nc(NC(=O)Nc4ccccc4OCCC(C)C)nn3c2)cn1 [Compound I-218] (field: inhibition at 10 µM) = 90

response.value for C[C@@H](CO)NC(=O)c1ccccc1NC(=O)Nc1nc2c(s1)CN(c1ccc(C(F)(F)F)cc1)CC2 [Compound I-206] (field: inhibition at 10 µM) = 87

response.value for COc1cc(N2CCc3nc(NC(=O)Nc4ccccc4C(=O)NC4CC4)sc3C2)nc(OC)n1 [Compound I-16] (field: inhibition at 10 µM) = 92

response.value for CC(=O)c1cccc(-c2ccc3nc(NC(=O)Nc4ccccc4OCCC(C)C)nn3c2)c1 [Compound I-217] (field: inhibition at 10 µM) = 88

response.value for C[C@@H](CO)NC(=O)c1ccccc1NC(=O)Nc1nc2c(s1)CN(c1cc[nH]c(=O)c1)CC2 [Compound I-183] (field: inhibition at 10 µM) = 91

###

# TEST DETAILS: Metabolic stability test (pooled human liver microsome)
# Type: in vitro ADME
# TEST CONTEXT: percentage of test compound remained after 30 minutes, pooled human liver microsome 0.5 mg protein/mL, 1 mmol/L NADPH, 37° C., compound 0.5 μM
Answer 0 if hLMS_ox(at 0.5 μM) % is under 90%, and 1 if it is 90% or more.

Query :: Can `COc1cc(N2CCc3nc(NC(=O)Nc4cn(C)nc4C(=O)NCC#N)sc3C2)nc(OC)n1` be said to have hLMS_ox(at 0.5 μM) % at or above 90%?
Result :: 1

Query :: Can `COc1cncc(-c2cc(NC(=O)Nc3ccccc3C(=O)NC(C)C)nn2C)c1` be said to have hLMS_ox(at 0.5 μM) % at or above 90%?
Result :: 0

Query :: Can `C[C@H](CO)NC(=O)c1ccccc1NC(=O)Nc1nc2c(s1)CN(c1ccc(C(F)(F)F)cc1)CC2` be said to have hLMS_ox(at 0.5 μM) % at or above 90%?
Result :: 1

Query :: Can `[2H]C([2H])([2H])C([2H])(NC(=O)c1ccccc1NC(=O)Nc1nc2c(s1)CN(c1cc(OC)nc(OC)n1)CC2)C([2H])([2H])[2H]` be said to have hLMS_ox(at 0.5 μM) % at or above 90%?
Result :: 0

Query :: Can `CC(C)NC(=O)c1ccccc1NC(=O)Nc1nc2c(s1)CN(c1cc[nH]c(=O)c1)CC2` be said to have hLMS_ox(at 0.5 μM) % at or above 90%?
Result :: 1
